Reported %Inh by item:
system: FAK; construct: gene PTK2; conditions: concentration: 1 μM,replicates: in singlicate; n = 1;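 note: KINOMEscan kinase panel screen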
measured attribute: %Inh

chemical string: COc1cccc(OC)c1C(=O)Nc1cccc(-c2nn3ccccc3c2-c2ccnc(Nc3cccc(F)c3)n2)c1
measured attribute: %Inh
result: 1%

chemical string: O=C1NCCc2[nH]c(-c3ccncc3)cc21
measured attribute: %Inh
result: 0%

chemical string: Cn1ccc2ncnc(Oc3ccc(NC(=O)Nc4cncc(C(F)(F)F)c4)c(Cl)c3)c21
measured attribute: %Inh
result: 0%

---

system: MET; details: concentration: 1 μM,replicates: in singlicate; n = 1
Reported %Inh by item:

molecule: Cn1ccc2ncnc(Oc3ccc(NC(=O)Nc4cccc(C(F)(F)F)c4)c(F)c3)c21
experimental target: MET
%Inh / %: 50
--
molecule: CCn1c(-c2nonc2N)nc2cncc(Br)c21
experimental target: MET
%Inh / %: 0
--
molecule: CC(C(=O)NC1CCN(c2ccnc(Nc3ccc(F)cc3)n2)C1)c1ccc(Cl)cc1 (stereo not shown)
experimental target: MET
%Inh / %: 0
--
molecule: CS(=O)c1ccc(-c2coc3ccc(-c4n[nH]c(=O)o4)cc23)cc1 (stereo not shown)
experimental target: MET
%Inh / %: 22
--
molecule: Nc1nccc(-c2ccc3c(N)n[nH]c3c2)n1
experimental target: MET
%Inh / %: 0
--
molecule: CC(=O)c1c(-c2ccncc2)[nH]c(-c2ccncc2)c1C
experimental target: MET
%Inh / %: 11
--
molecule: Cl.Nc1n[nH]c2cc(-c3ccccn3)ccc12
experimental target: MET
%Inh / %: 0
--
molecule: CCCC(=O)Nc1n[nH]c2ncccc12
experimental target: MET
%Inh / %: 0
--
molecule: Cc1nnc(-c2ccc3occ(-c4ccc(S(C)=O)cc4)c3n2)o1 (stereo not shown)
experimental target: MET
%Inh / %: 0
--
molecule: Cn1ccc2ncnc(Oc3ccc(NC(=O)Nc4ccnc(C(F)(F)F)c4)c(Cl)c3)c21
experimental target: MET
%Inh / %: 2
--
molecule: O=c1[nH]cc(-c2ccc(O)cc2)c2sc(-c3ccncc3)cc12
experimental target: MET
%Inh / %: 0
--
molecule: Cc1ccc(CC(=O)N2CCc3cc(-c4cn(C)c5ncnc(N)c45)ccc32)cc1
experimental target: MET
%Inh / %: 86
--
molecule: CN(c1ccc2c(c1)nc(NCc1ccc(F)cc1)n2C)c1ccnc(Nc2ccc(CS(C)(=O)=O)cc2)n1.Cl
experimental target: MET
%Inh / %: 45
--
molecule: COc1cc2c(Nc3ccc(NC(=O)c4ccccc4)cc3)ncnc2cc1OCCCN1CCOCC1
experimental target: MET
%Inh / %: 50
--
molecule: NC(=O)c1ccc(-c2cc3ncnc(SCC(=O)O)c3s2)cc1
experimental target: MET
%Inh / %: 0
--
molecule: FC(F)(F)c1cc(Br)cc(Nc2nccc(-c3cnn4ncccc34)n2)c1
experimental target: MET
%Inh / %: 0
--
molecule: CSc1nccc(-c2c(-c3ccc(F)cc3)ncn2CCCN2CCOCC2)n1.Cl
experimental target: MET
%Inh / %: 0
--
molecule: CN(c1cccc(CNc2nc(Nc3ccc4c(c3)CC(=O)N4)ncc2C(F)(F)F)c1)S(C)(=O)=O
experimental target: MET
%Inh / %: 93.9
--
molecule: O=C(Nc1ccccc1)c1cccc(Oc2ccc3nccn3n2)c1
experimental target: MET
%Inh / %: 0
--
molecule: Cn1ccc2ncnc(Oc3ccc(NC(=O)Nc4cc(C(C)(C)C)on4)c(Cl)c3)c21
experimental target: MET
%Inh / %: 48
--
molecule: c1ccc(Oc2ccc(Nc3ccnc4ccc(-c5ccccn5)cc34)cc2)cc1
experimental target: MET
%Inh / %: 16
--
molecule: Cl.c1ccc(Oc2ccc(Nc3ccnc4cc(-c5ccc(CN6CCNCC6)o5)ccc34)cc2)nc1
experimental target: MET
%Inh / %: 0
--
molecule: COc1cc(Nc2nccc(N3CCC(NC(=O)c4cccc(C#N)c4)C3)n2)cc(OC)c1OC (stereo not shown)
experimental target: MET
%Inh / %: 6
--
molecule: COC(=O)c1cccc(NC(=O)NC2CCN(c3ccnc(NCc4ccc(F)cc4)n3)CC2)c1
experimental target: MET
%Inh / %: 0
--
molecule: CC(C)c1nc(-c2cccc(NS(=O)(=O)c3ccccc3)c2)c(-c2ccnc(Nc3ccc4c(c3)CN(C)CC4)n2)s1
experimental target: MET
%Inh / %: 23
--
molecule: CC(=O)Nc1nc2cnc(Nc3cc(NC(=O)c4cccc(CC(C)(C)C#N)c4)ccc3C)nc2s1
experimental target: MET
%Inh / %: 7
--
molecule: Cc1ccn2nc(-c3ccc(F)cc3)c(-c3ccncc3)c2c1.Cl
experimental target: MET
%Inh / %: 0
--
molecule: Cn1ccc2ncnc(Oc3ccc(NC(=O)Nc4cccc(C(F)(F)F)c4)c(Cl)c3)c21
experimental target: MET
%Inh / %: 17
--
molecule: N#Cc1cccc(C(=O)NC2CCN(c3ccnc(Nc4ccc(F)cc4)n3)C2)c1 (stereo not shown)
experimental target: MET
%Inh / %: 18
--
molecule: Cc1ccc(Nc2ccnc(Nc3ccc4c(c3)CS(=O)(=O)C4)n2)cc1O.Cl
experimental target: MET
%Inh / %: 80
--
molecule: CCOC(=O)N1CCC(n2cnc(-c3ccc(F)cc3)c2-c2ccnc(N)n2)CC1
experimental target: MET
%Inh / %: 16
--
molecule: COC(=O)c1cccc(NC(=O)NC2CCN(c3ccnc(Nc4cc(OC)c(OC)c(OC)c4)n3)C2)c1 (stereo not shown)
experimental target: MET
%Inh / %: 19
--
molecule: CN(c1ccccc1CNc1nc(Nc2ccc3c(c2)CC(=O)N3)ncc1C(F)(F)F)S(C)(=O)=O
experimental target: MET
%Inh / %: 86
--
molecule: NC(=O)Nc1sc(-c2ccc(F)cc2)cc1C(N)=O
experimental target: MET
%Inh / %: 12

Reference source for all entries: paper PMC5540273
